- experiment_description: NCI Yeast Anticancer Drug Screen. Data for the rad50 strain (AID 155)
- condition_label: S. cerevisiae rad50 strain growth inhibition; at 100.0 µM
About 79,000 compounds went through this panel and 15% of them were active in at least one assay; those are over-represented in the sample as a whole. Active and inactive are the calls of the source. No stated cut-off is given here; in the data, active means growth inhibition above about 70%; inactive means the rest.
Log the outcome using a class from True (active), False (inactive)

The examples below pair each entry with its known result.
> print(dat)
                                   compound  category.label
1  CC1=CC(C)(C)SC(SSSC2=NC(C)=CC(C)(C)S2)=N1           False
2   COc1ccc(N=c2cc(-c3ccccc3)oc3ccccc23)cc1           False
3   CN(C)CCNc1ccc2ncn3c4ccc(O)cc4c(=O)c1c23           False
4  CC1=NN(C(=O)CC(=O)NC(=O)/C=C\c2ccccc2)C(=O)C1N=Nc1ccc([N+](=O)[O-])cc1 (stereo unspecified)            True
5  CC(=O)O/N=C1C=C/C(=C(/C#N)c2ccccc2)C=C/1C            True
6  COc1ccc2nc3cccc([N+](=O)[O-])c3c(NCCNCCN(C)C)c2c1           False

[in] Which outcome was entered for the compound CC(C)(CN1CCCCC1)C(=O)CC(SCCS(=O)(=O)O)c1ccccc1 (stereo unspecified) in this test?
[out] False

[in] Which outcome was entered for the compound CN(C)CC1=Nc2cccc3cccc(c23)N1 in this test?
[out] True

[in] Which outcome was entered for the compound C=COC(=O)N[C@H]1CCc2cc(OC)c(OC)c(OC)c2-c2ccc(SC)c(=O)cc21 in this test?
[out] True

[in] Which outcome was entered for the compound CC(=O)CCC1=C(C)C(=O)C(=O)C(C)=C1O in this test?
[out] True

[in] Which outcome was entered for the compound C/C1=C/C2OC(=O)C3(C)C2C(CC2(C)OC1=CC2=O)OC3(O)C(C)C (stereo unspecified) in this test?
[out] False
